# assayNotes: Selectivity index, ratio of IC50 for HUVEC to IC50 for human MDA-MB-231 cells
Quick rule for you: Ratio IC50 at 7 or higher means class 1, lower means class 0.

// inclusive: Ratio IC50 at least 7? input: `CCOC(=O)c1cc2c(nc1C(F)(F)F)nn1c(-c3ccc[nH]3)cc(-c3ccccc3)nc21`
class 1

// inclusive: Ratio IC50 at least 7? input: `CCOC(=O)c1cc2c(nc1C(F)(F)F)nn1c(C(F)(F)F)cc(C)nc21`
class 0

// inclusive: Ratio IC50 at least 7? input: `CCOC(=O)c1cc2c(nc1C(F)(F)F)nn1c(-c3ccc(OC(F)(F)F)cc3)cc(-c3cccs3)nc21`
class 0

// inclusive: Ratio IC50 at least 7? input: `CCOC(=O)c1cc2c(nc1C(F)(F)F)nn1c(C)cc(C)nc21`
class 0

// inclusive: Ratio IC50 at least 7? input: `CCOC(=O)c1cc2c(nc1C(F)(F)F)nn1c(-c3ccc(F)cc3)cc(-c3ccc(OC)cc3)nc21`
class 0

// inclusive: Ratio IC50 at least 7? input: `CCOC(=O)c1cc2c(nc1C(F)(F)F)nn1ccc(C)nc21`
class 1

// inclusive: Ratio IC50 at least 7? input: `CCOC(=O)c1cc2c(nc1C(F)(F)F)nn1c(-c3ccccc3)cc(C)nc21`
class 0

// inclusive: Ratio IC50 at least 7? input: `CCOC(=O)c1cc2c(nc1C(F)(F)F)nn1c(-c3ccc([N+](=O)[O-])cc3)cc(-c3ccccc3)nc21`
class 1

// inclusive: Ratio IC50 at least 7? input: `O=c1[nH]cc(F)c(=O)[nH]1`
class 1

// inclusive: Ratio IC50 at least 7? input: `CCOC(=O)c1cc2c(nc1C(F)(F)F)nn1c(-c3c(F)cc(OC)cc3F)cc(-c3cccs3)nc21`
class 0

// inclusive: Ratio IC50 at least 7? input: `CCOC(=O)c1cc2c(nc1C(F)(F)F)nn1c(-c3ccc(F)cc3)cc(-c3cccs3)nc21`
class 0

Provenance of the data: ChEMBL document CHEMBL3862019
